- targetSystem: Polyunsaturated fatty acid lipoxygenase ALOX12 (Homo sapiens)
- assayName: Primary qHTS assay for inhibitors of human arachidonate 12S-lipoxygenase (ALOX12): Round 2
- testSettings: purified 12hLO, xylenol orange hydroperoxide absorbance; series mostly up to 108 µM
About 6,100 (1.1%) of roughly 580,000 compounds were called active. Roughly 15% stayed inconclusive and do not appear here. Calls come from the whole dose curve; as a rule, active = well fitted inhibition curve with a large enough effect; inconclusive = small, poorly fitted or top-dose-only effect, or another doubt; inactive = no such curve, though single readings can be large or run the other way. The list comes from a sample in which actives are over-represented; it also holds close analogues and randomly drawn compounds.
Labels: active, inactive

[
  {
    "compound": "CC(C)(C)c1ccc(C(=O)NNC(=O)C2CC2)cc1",
    "discreteLabel": "inactive"
  },
  {
    "compound": "Cc1nc2cc(NC(=O)C3CC(=O)N(CC4CC4)C3)ccc2o1 (stereo not drawn)",
    "discreteLabel": "inactive"
  },
  {
    "compound": "COc1ccc(C(=O)NCc2ccc(C)cc2)cc1S(=O)(=O)N1CCCC1",
    "discreteLabel": "inactive"
  },
  {
    "compound": "Cc1ccc(N=C2NC(=O)/C(=C/C=C/c3ccco3)S2)cc1C",
    "discreteLabel": "active"
  },
  {
    "compound": "N#CC1(Nc2ccc3c4c(cccc24)CC3)CCCCC1",
    "discreteLabel": "active"
  },
  {
    "compound": "O=C(O)CCC(=O)C(CC(=O)O)CC(=O)O",
    "discreteLabel": "inactive"
  },
  {
    "compound": "Cc1ccc(C(=O)N/C(=C\\c2ccco2)C(=O)N2CCSCC2)cc1C",
    "discreteLabel": "inactive"
  },
  {
    "compound": "CC1CCN(c2nc3ccccc3nc2C(C#N)S(=O)(=O)c2cccc(Cl)c2)CC1 (stereo not drawn)",
    "discreteLabel": "active"
  },
  {
    "compound": "CN(CC1CCOC1)C(=O)Nc1cc(F)c(F)c(F)c1 (stereo not drawn)",
    "discreteLabel": "inactive"
  },
  {
    "compound": "COCCn1nc2n(c1=O)CCN(S(=O)(=O)c1ccc(Cl)s1)CC2",
    "discreteLabel": "inactive"
  },
  {
    "compound": "O=C(NCc1ccccn1)C1CCN(C(=O)c2ccc(C(F)(F)F)cc2)CC1",
    "discreteLabel": "inactive"
  },
  {
    "compound": "O=c1cc(-c2ccccc2)n2c(SCc3ccccc3)nnc2[nH]1",
    "discreteLabel": "inactive"
  },
  {
    "compound": "O=S(=O)(NC1CC1)c1ccc2c3c(cccc13)CC2",
    "discreteLabel": "inactive"
  },
  {
    "compound": "COc1ccc(C(=O)N(Cc2ccccc2)c2ccc(C)cc2)cc1S(=O)(=O)N1CCOCC1",
    "discreteLabel": "inactive"
  },
  {
    "compound": "O=C(OC12CC3CC(CC(C3)C1)C2)c1ccc(NCc2cc(O)ccc2O)cc1",
    "discreteLabel": "active"
  },
  {
    "compound": "O=C(Cn1nc(C(=O)O)c2ccccc2c1=O)Nc1cc(F)ccc1F",
    "discreteLabel": "inactive"
  },
  {
    "compound": "Oc1cc2c(cc1O)CN(C(=S)NCCc1ccc(Cl)cc1)CCC2",
    "discreteLabel": "active"
  },
  {
    "compound": "CN1CCN(c2ccc3nnc(C4CCC4)n3n2)CC1",
    "discreteLabel": "inactive"
  },
  {
    "compound": "COc1ccc(NC(C)=O)cc1NC(=O)CCn1cnc2c1c(=O)n(C)c(=O)n2C",
    "discreteLabel": "inactive"
  },
  {
    "compound": "COc1ccc(S(=O)(=O)N2CCN(Cc3ncc(-c4ccc(F)cc4)o3)CC2)cc1",
    "discreteLabel": "inactive"
  },
  {
    "compound": "Clc1cccc(CN2CCN(Cc3nnsc3Cl)CC2)c1",
    "discreteLabel": "inactive"
  },
  {
    "compound": "CCN(CC(=O)NC(=O)NCC(C)C)C1CC1",
    "discreteLabel": "inactive"
  },
  {
    "compound": "O=C(CSCc1ccc(Cl)cc1)N1CCCCC1",
    "discreteLabel": "inactive"
  }
]
